Tested on: LNCaP tumor-bearing male CB-17 SCID mice
protocol_summary: Biodistribution 1 h p.i. with competition (co-injection of 2-PMPA)
Format: in vivo
condition_description: co-injected with 2-PMPA (8 mg/kg), n = 3
measurement_kind: Biodistribution Pancreas (% ID/g)
Number in % ID/g, nothing else.

compound="CC(C)(C)[Si]([18F])(c1ccc(C(=O)NC[C@@H](NC(=O)CC[C@H](C(=O)O)N2CCN(CC(=O)[O-])CCN(CC(=O)[O-])CCN(CC(=O)[O-])CC2)C(=O)N[C@H](CCCCNC(=O)CCC(=O)NCCC[C@@H](NC(=O)CC[C@H](NC(=O)N[C@@H](CCC(=O)O)C(=O)O)C(=O)O)C(=O)O)C(=O)O)cc1)C(C)(C)C.[Ga+3] [[^18F, ^natGa]rhPSMA-7.1]" target_or_test_system="LNCaP tumor-bearing male CB-17 SCID mice" val=0.16
compound="CC(C)(C)[Si]([18F])(c1ccc(C(=O)NC[C@@H](NC(=O)CC[C@@H](C(=O)O)N2CCN(CC(=O)[O-])CCN(CC(=O)[O-])CCN(CC(=O)[O-])CC2)C(=O)N[C@H](CCCCNC(=O)CCC(=O)NCCC[C@@H](NC(=O)CC[C@H](NC(=O)N[C@@H](CCC(=O)O)C(=O)O)C(=O)O)C(=O)O)C(=O)O)cc1)C(C)(C)C.[Ga+3] [[^18F, ^natGa]rhPSMA-7.3]" target_or_test_system="LNCaP tumor-bearing male CB-17 SCID mice" val=0.11

Item: CC(C)(C)[Si]([18F])(c1ccc(C(=O)NC[C@H](NC(=O)CC[C@H](C(=O)O)N2CCN(CC(=O)[O-])CCN(CC(=O)[O-])CCN(CC(=O)[O-])CC2)C(=O)N[C@H](CCCCNC(=O)CCC(=O)NCCC[C@@H](NC(=O)CC[C@H](NC(=O)N[C@@H](CCC(=O)O)C(=O)O)C(=O)O)C(=O)O)C(=O)O)cc1)C(C)(C)C.[Ga+3] [[^18F, ^natGa]rhPSMA-7.2] | Biodistribution Pancreas: 0.12

====

Test system: LNCaP tumor-bearing male CB-17 SCID mice
protocol_summary: Biodistribution 1 h p.i. with competition (co-injection of 2-PMPA)
Assay type: in vivo
condition_description: co-injected with 2-PMPA (8 mg/kg), n = 3
measurement_kind: Biodistribution Heart (% ID/g)
Number in % ID/g, nothing else.

Consider the following illustrative entries.
compound="CC(C)(C)[Si]([18F])(c1ccc(C(=O)NC[C@@H](NC(=O)CC[C@H](C(=O)O)N2CCN(CC(=O)[O-])CCN(CC(=O)[O-])CCN(CC(=O)[O-])CC2)C(=O)N[C@H](CCCCNC(=O)CCC(=O)NCCC[C@@H](NC(=O)CC[C@H](NC(=O)N[C@@H](CCC(=O)O)C(=O)O)C(=O)O)C(=O)O)C(=O)O)cc1)C(C)(C)C.[Ga+3] [[^18F, ^natGa]rhPSMA-7.1]" target_or_test_system="LNCaP tumor-bearing male CB-17 SCID mice" val=0.37
compound="CC(C)(C)[Si]([18F])(c1ccc(C(=O)NC[C@H](NC(=O)CC[C@H](C(=O)O)N2CCN(CC(=O)[O-])CCN(CC(=O)[O-])CCN(CC(=O)[O-])CC2)C(=O)N[C@H](CCCCNC(=O)CCC(=O)NCCC[C@@H](NC(=O)CC[C@H](NC(=O)N[C@@H](CCC(=O)O)C(=O)O)C(=O)O)C(=O)O)C(=O)O)cc1)C(C)(C)C.[Ga+3] [[^18F, ^natGa]rhPSMA-7.2]" target_or_test_system="LNCaP tumor-bearing male CB-17 SCID mice" val=0.47
compound="CC(C)(C)[Si]([18F])(c1ccc(C(=O)NC[C@H](NC(=O)CC[C@@H](C(=O)O)N2CCN(CC(=O)[O-])CCN(CC(=O)[O-])CCN(CC(=O)[O-])CC2)C(=O)N[C@H](CCCCNC(=O)CCC(=O)NCCC[C@@H](NC(=O)CC[C@H](NC(=O)N[C@@H](CCC(=O)O)C(=O)O)C(=O)O)C(=O)O)C(=O)O)cc1)C(C)(C)C.[Ga+3] [[^18F, ^natGa]rhPSMA-7.4]" target_or_test_system="LNCaP tumor-bearing male CB-17 SCID mice" val=0.37

Then this compound:
Item: CC(C)(C)[Si]([18F])(c1ccc(C(=O)NC[C@@H](NC(=O)CC[C@@H](C(=O)O)N2CCN(CC(=O)[O-])CCN(CC(=O)[O-])CCN(CC(=O)[O-])CC2)C(=O)N[C@H](CCCCNC(=O)CCC(=O)NCCC[C@@H](NC(=O)CC[C@H](NC(=O)N[C@@H](CCC(=O)O)C(=O)O)C(=O)O)C(=O)O)C(=O)O)cc1)C(C)(C)C.[Ga+3] [[^18F, ^natGa]rhPSMA-7.3] | Biodistribution Heart: 0.26

Numbers sourced from paper PMC7721954.
